tested on: MDA-MB-231 breast; assay: NCI tumour cell line growth inhibition, 48 h; in the data active = GI50 below about 0.43 µM; inactive = the rest
Outcome (select one): active, inactive

These solved cases illustrate the format of a correct answer.
{"compound": "COc1cc2c(cc1OC)[C@@H]1C(=O)c3cc4c(cc3[C@@H]1N(CCN(C)C)C2=O)OCO4", "group": "inactive"}
{"compound": "Cc1nc2ccc(Nc3nc(Cl)nc(Nc4ccc(F)cc4)n3)cc2n1Cc1ccccc1", "group": "inactive"}
{"compound": "CCN(Cc1cccnc1)c1ccc(CO)c(Cl)c1", "group": "inactive"}
{"compound": "C/C(=N\\NC(=O)c1ccc(C(C)(C)C)cc1)c1ccc(O)cc1O", "group": "inactive"}
{"compound": "COc1cc(C(=O)N2CCN(c3ccccn3)CC2)c(N)cc1OCc1ccccc1", "group": "inactive"}

What call does the record list for `CCCCCCCCCCCC[C@@H](O)[C@H]1CC[C@H]([C@H](O)CCCC[C@H](O)CCCCC[C@@H](O)CC2=C[C@H](C)OC2=O)O1` ?
inactive

----------
Assignment: determine reported TGI for the given compounds.
system: SK-MEL-2 melanoma; experiment: NCI tumour cell line growth inhibition, 48 h
Numbers only, in µM.

These solved cases illustrate the format of a correct answer.
{"compound": "CC(C)=Cc1cc2c(cc1O)CCC1C2CC[C@@]2(C)C1CC[C@@H]2O (some centres undefined)", "TGI / µM": 32.7}
{"compound": "COc1cc(/C=C2\\CN(S(=O)(=O)c3ccc(C)cc3)C/C(=C\\c3cc(CN4CCOCC4)c(O)c(OC)c3)C2=O)cc(CN2CCOCC2)c1O", "TGI / µM": 65.1}
{"compound": "COc1cccc(C(=O)c2sc(Nc3ccc(N4CCN(C(C)C)CC4)cc3)nc2N)c1", "TGI / µM": 5.49}
{"compound": "COc1ccc([As]=[As]c2ccc(OC)c(NCS(=O)(=O)O)c2)cc1NCS(=O)(=O)O (centres undefined)", "TGI / µM": 4.54}

Here is the next item to consider.
With SK-MEL-2 melanoma as the test system, C=C1C(=O)OC2C1C(=O)C/C(C)=C/CCC1(C)OC21 (centres undefined) showed TGI of 35.8

----------
tested on: HT29 colon; experiment: NCI tumour cell line growth inhibition, 48 h
What TGI was measured for each of the following?
One number for each entry, in µM.

{"smilesStructure": "C/C(=N\\NC(=O)c1ccc(C(C)(C)C)cc1)c1ccc(O)cc1O", "TGI (µM)": 14.2}
{"smilesStructure": "Cn1nc(-c2ccccc2)c(C(=O)/C=C/c2ccc(F)cc2)c(N2CCCC2)c1=O", "TGI (µM)": 15.3}
{"smilesStructure": "COc1ccc(-c2nn(C(=O)NCCN(C)C)cc2-c2ccncc2)cc1Cl", "TGI (µM)": 12.6}

Consider now this further molecule.
Entry `CCOC(=O)C1=C(C)N=C2SC=C(c3ccccc3)N2[C@H]1c1cn[nH]c1-c1ccc(Cl)cc1` — recorded TGI = 13.7

----------
So I've got a bunch of molecules here, and I need their TGI values.
tested on: MOLT-4 leukemia; experiment: NCI tumour cell line growth inhibition, 48 h
Give bare numbers, in µM.

{"molecule": "C=C1C(=O)OC2C1C(=O)C/C(C)=C/CCC1(C)OC21 (stereo unspecified)", "testedOn": "MOLT-4 leukemia", "unitAbbrev": "µM", "testValue": 47}
{"molecule": "CCOC(=O)c1ccc2c(c1)nc(-c1ccc(Cl)cc1)n2-c1cc(C(C)(C)C)[nH]n1", "testedOn": "MOLT-4 leukemia", "unitAbbrev": "µM", "testValue": 30.4}
{"molecule": "Cc1nc(N)nc(N)c1CCCCc1ccccc1", "testedOn": "MOLT-4 leukemia", "unitAbbrev": "µM", "testValue": 63.5}
{"molecule": "O=C(Cc1csc2nc(-c3ccc(Br)cc3)cn12)N/N=C/c1ccccc1", "testedOn": "MOLT-4 leukemia", "unitAbbrev": "µM", "testValue": 37}

Please turn your attention to the following entry.
TGI for `CCOC(=O)C(Cc1c(C=O)[nH]c2ccccc12)(NC(=O)c1ccccc1)C(=O)OCC` is 37.1

----------
test system: SNB-75 CNS; assay: NCI tumour cell line growth inhibition, 48 h
Can you tell me TGI for the items I'm about to list?

Worked set:
{"compound": "O=C1C(c2ccc([N+](=O)[O-])cc2)=[N+]([O-])c2ccc([N+](=O)[O-])cc21", "TGI": "> 100 µM"}
{"compound": "CS(=O)(=O)Nc1ccc(Nc2c3ccccc3nc3cc([N+](=O)[O-])ccc23)cc1", "TGI": "11.8 µM"}
{"compound": "NC(=O)c1ncn2c1CNC(=O)C2", "TGI": "> 100 µM"}
{"compound": "COc1ccc(OC)c(C(=O)c2cccc(C(=O)c3cc(OC)ccc3OC)n2)c1", "TGI": "59.4 µM"}
{"compound": "S=c1sc2c(s1)SCc1cccc(n1)CSc1sc(=S)sc1SCc1cccc(n1)CS2", "TGI": "> 100 µM"}

Lab note: each compound below needs its TGI filled in.
1. CCOC(=O)/C(ON)=C(/CC/C(C(=O)OC)=C(\ON)C(=O)OCC)C(=O)OC
2. COc1cc2c3c(n(CCCn4ccnc4)c(=O)c2cc1OC)-c1cc2c(cc1C3=O)OCO2

1. > 100 µM
2. > 100 µM

----------
For each of the molecules below, state its TGI.
system: MALME-3M melanoma; assay: NCI tumour cell line growth inhibition, 48 h

# count of solved cases: 3
{"molecule": "O=C1Nc2ccc(Cl)cc2C(=O)N2CCC[C@@H]12", "testValue": "> 100 µM"}
{"molecule": "Cc1nc2ccc(Nc3nc(Cl)nc(Nc4ccc(F)cc4)n3)cc2n1Cc1ccccc1", "testValue": "24.6 µM"}
{"molecule": "CC12OC(CC(O)C1O)n1c3ccccc3c3c4c(c5c6ccccc6n2c5c31)C(=O)N(CCN1CCCC1)C4=O (stereo not given)", "testValue": "8.41 µM"}

Below is a list of molecules. For each, state its recorded TGI.
1. CC=C(CBr)CCC(Br)C(C)(C)Cl (mixture of isomers)
2. COc1ccc2c(c1)OCC1Cc3cc4c(cc3OC21)OCO4 (stereo not given)
3. CN(C)c1ccc(/C=C2\C[C@H]3[C@@H]4CCc5cc(OCCN6CCCC6)ccc5[C@H]4CC[C@]3(C)[C@H]2O)cc1
4. NC1CCCCC1
5. CCOC(=O)C(Cc1c(C=O)[nH]c2ccccc12)(NC(=O)c1ccccc1)C(=O)OCC
6. O=C(c1cc(Cl)ccc1Cl)N1CCN(c2ccc(Cl)c(Cl)c2)CC1
7. N#CC1(Cc2ccccc2)CCCCN1C(=O)c1ccccc1 (stereo not given)

1: > 10 µM; 2: > 100 µM; 3: > 30.2 µM; 4: > 562 µM; 5: 33.9 µM; 6: > 100 µM; 7: > 100 µM

----------
test system: IGROV1 ovarian
Permitted responses: class 1 for active, class 0 for inactive

Answered cases to consult:
{"molecule": "COC1C(O)CC(OC2CC(OC3CC(O[C@@H]4C(=O)c5c(cc6cc(OC7CC(OC8CC(O)C(O)C(C)O8)C(O)C(C)O7)c(C)c(O)c6c5O)CC4[C@H](OC)C(=O)C(C)=O)OC(C)C3O)OC(C)C2O)OC1C (stereo partly drawn)", "group": "class 1"}
{"molecule": "CCOC(=O)c1ccc2c(c1)nc(-c1ccc(Cl)cc1)n2-c1cc(C(C)(C)C)[nH]n1", "group": "class 0"}
{"molecule": "CC(C)Cc1ccc(C(C)C(=O)NCc2ccc(Cn3c(=O)sn(CCCCl)c3=O)cc2)cc1 (stereo not drawn)", "group": "class 0"}
{"molecule": "Cc1ccc(C(=Nc2ccccc2)N=P(c2ccccc2)(c2ccccc2)c2ccccc2)cc1", "group": "class 0"}
{"molecule": "COc1cccc(C(=O)c2sc(Nc3ccc(N4CCN(C(C)C)CC4)cc3)nc2N)c1", "group": "class 0"}
{"molecule": "COc1ccc([As]=[As]c2ccc(OC)c(NCS(=O)(=O)O)c2)cc1NCS(=O)(=O)O (stereo not drawn)", "group": "class 0"}
{"molecule": "CS(=O)(=O)c1ccc(Oc2cc(F)cc(C#N)c2)c2c1[C@H](O)[C@H](F)[C@H]2F", "group": "class 0"}

Would you mind telling me which call this test gave `O=C1c2ccccc2C(=O)c2c(Nc3ccc(CCO)cc3)ccc(O)c21` ?
class 0

----------
Consider the following compounds; for each one, report its TGI.
system: HOP-92 NSCLC; experiment: NCI tumour cell line growth inhibition, 48 h
Give bare numbers, in µM.

As a guide, the following entries are already answered.
{"compound": "CCN(Cc1ccccc1F)c1ccc(CO)c(Cl)c1", "testedOn": "HOP-92 NSCLC", "unitAbbrev": "µM", "TGI": 8.72}
{"compound": "O=C1/C(=C/c2ccc(O)c(CN3CCCCC3)c2)CCC/C1=C\\c1ccc(O)c(CN2CCCCC2)c1", "testedOn": "HOP-92 NSCLC", "unitAbbrev": "µM", "TGI": 12.3}
{"compound": "CCCCCNC(=O)c1cc2cc(CCl)ccc2oc1=O", "testedOn": "HOP-92 NSCLC", "unitAbbrev": "µM", "TGI": 3.71}
{"compound": "COc1cc(/C=C2\\CCc3ccccc3C2=O)ccc1O", "testedOn": "HOP-92 NSCLC", "unitAbbrev": "µM", "TGI": 45.2}
{"compound": "COc1cc(/C=C2\\CN(S(=O)(=O)c3ccc(C)cc3)C/C(=C\\c3cc(CN4CCOCC4)c(O)c(OC)c3)C2=O)cc(CN2CCOCC2)c1O", "testedOn": "HOP-92 NSCLC", "unitAbbrev": "µM", "TGI": 71.8}
{"compound": "CCCCCCCCCCOC1C(C(O)CNCCCN(C)C)OC2OC3(CCCCC3)OC21 (stereo not given)", "testedOn": "HOP-92 NSCLC", "unitAbbrev": "µM", "TGI": 5.33}
{"compound": "CC12OC(CC(O)C1O)n1c3ccccc3c3c4c(c5c6ccccc6n2c5c31)C(=O)N(CCN1CCCC1)C4=O (stereo not given)", "testedOn": "HOP-92 NSCLC", "unitAbbrev": "µM", "TGI": 10.3}
{"compound": "CCOC(=O)C(Cc1c(C=O)[nH]c2ccccc12)(NC(=O)c1ccccc1)C(=O)OCC", "testedOn": "HOP-92 NSCLC", "unitAbbrev": "µM", "TGI": 31.3}

Record TGI for all entries; do not skip any.
1. O=C(CI)OCC(COC(=O)CI)OC(=O)CI
2. COc1ccc(-c2cc(=O)oc3ccc(Cl)cc23)cc1F
3. CCOC(=O)C1=C(C)N=C2SC=C(c3ccccc3)N2[C@H]1c1cn[nH]c1-c1ccc(Cl)cc1

4.03
7.94
8.7
